B1: SETD8 (parent)
chain: FVVEYHGDLIEITDAKKREALYAQ

# Variants of: B1
# EXPERIMENT SUMMARY: protein stability index of a GFP-peptide fusion (GPS, HEK-293T) (PSI 1-6); higher = more stable;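 further: lentivirally expressed fusions sorted by FACS into six bins by GFP to DsRed ratio, PSI derived from sequencing read proportions per bin multiplied by bin number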
# ASSAY CONDITIONS: c terminus: a fixed tail appended
ASSAY ENDPOINT: protein stability index

Examples from the recorded data:
D8Q :: 1.59
A20Y :: 1.71
T13Q :: 3.21
Y22P :: 2.29
Y22N :: 3.26
D8S :: 2.33

Any idea what its protein stability index is? The variant is E19G 1.75

Let us now turn to K17G 1.26

Another variant: G7D 2.33

Then what about the variant V2D ? 4.2

Check Y5C too. 2.05

Follow-up entry: A20C 2.08

Again, but for D14T 1.21

What do you get for V2P ? 4.09

Another variant to check: L9N 2.86

Now give it for L9A too. 2.31

Item: A20W 1.47

Then A23M ? 1.83

Try L21I next. 1.36

Now this one: G7T 1.94

// query: H6G 2.15

How about A20F ? 1.39

// query: Y5W 1.43

Quick one: Y5G 2.4

What about this variant? E19H 1.64

Now consider Y5A and answer again. 1.99

Please give the result for Q24F too. 1.5

And then H6P , what is it? 2

Repeat for the following variant: Q24H 1.64

Moving on to the next variant: E11V 1.96

Also, T13F please. 3.25

Next: D8T 1.45

Same thing, different variant: F1G 4.8

Ok, now D8F 2.77
